TARGET_UNDER_TEST: recombinant human CD200 Fc Chimera (human) (UniProt P41217)
EXPERIMENTAL_DETAILS: SPR (Biacore), CD200 captured by anti-Fc (human) on CM5, Fab injected
Quick rule for you: Kd under 0.4 nM gets MET, anything else gets NOT MET.

BINDER	CATEGORY
TPP-709 (Fab, V domains shown) VH: QVQLVQSGAEVKKPGASVKVSCKASGYSFTDYIILWVRQAPGQRLEWMGHIDPYYGSSNYNLKFKGRVTITRDTSASTAYMELSSLRSEDTAVYYCGRSKRDYFDYWGQGTLVTVSS VL: DIQMTQSPSSLSASVGDRVTITCKASQDINSYLSWFQQKPGKAPKSLIYRANRLVDGVPSRFSGSGSGTDFTLTISSLQPEDFGTYYCLQYDEFPYTFGQGTKLEIK	MET
TPP-751 (Fab, V domains shown) VH: QVQLVQSGAEVKKPGASVKVSCKASGYSFTDYIILWVRQAPGQRLEWMGHIDPYYGSSNYNLKFKGRVTITRDTSASTAYMELSSLRSEDTAVYYCGRSKRDYFDYWGQGTLVTVSS VL: DIQMTQSPSSLSASVGDRVTITCKASQDINSYLSWFQQKPGKAPKSLIYRANRLVDGVPSRFSGSGSGTDFTLTISSLQPEDFATYYCLQYDEFPYTFGQGTKLEIK	MET
TPP-100 (Fab, V domains shown) VH: EVQLQQSGPELVKPGASLKMSCKASGYSFTDYIILWVKQNHGKSLEWIGHIDPYYGSSNYNLKFKGKATLTVDKSSSTAYMQLNSLTSEDSAVYYCGRSKRDYFDYWGQGTTLTVSS VL: DIQMTQSPSSMYASLGERVTITCKASQDINSYLSWFQQKPGKSPKTLIYRANRLVDGVPSRFSGSGSGQDYSLTISSLEYEDMGIYYCLQYDEFPYTFGGGTKLEIK	NOT MET
TPP-101 (Fab, V domains shown) VH: QVQLQQSGSELKKPGASVKISCKASGYSFTDYIILWVRQNPGKGLEWIGHIDPYYGSSNYNLKFKGRVTITADQSTTTAYMELSSLRSEDTAVYYCGRSKRDYFDYWGQGTTLTVSS VL: DIQMTQSPSSLSASIGDRVTITCKASQDINSYLSWFQQKPGKAPKLLIYRANRLVDGVPSRFSGSGSGTDYTLTISSLQPEDFAVYYCLQYDEFPYTFGGGTKLEIK	NOT MET
